Biological target: His-tagged phosphorylated ubiquitin (UniProt P0CG48 1-76, phosphoserine at 65)
Test: pull-down; 1 nmol His-tagged pUb on Ni-NTA resin, 15 min with 1 nmol R0RBR variant; TBS, 2 mM BME, 0.02% Igepal 630; SDS–PAGE, Coomassie
Settings: both partners purified

binder	binding result
R334A Parkin R0RBR (domain or fragment, rat) PTYHSFFVYCKGPCHKVQPGKLRVQCGTCRQATLTLAQGPSCWDDVLIPNRMSGECQSPDCPGTRAEFFFKCGAHPTSDKDTSVALNLITNNSRSIPCIACTDVRNPVLVFQCNHRHVICLDCFHLYCVTRLNDRQFVHDAQLGYSLPCVAGCPNSLIKELHHFRILGEEQYNRYQQYGAEECVLQMGGVLCPAPGCGAGLLPEQGQKKVTCEGGNGLGCGFVFCRDCKEAYHEGECDSMFEASGATSQAYRVDQRAAEQARWEEASKETIKKTTKPCPRCNVPIEKNGGCMHMKCPQPQCKLEWCWNCGCEWNRACMGDHWFDV	binds

// data source = paper PMC4609182
